Molecular target: EGFR (Homo sapiens, UniProt P00533, L858R/T790M)
Construct: endogenous in cells; host or cells: H1975
Sequence (P00533 25-1210 T790M/L858R): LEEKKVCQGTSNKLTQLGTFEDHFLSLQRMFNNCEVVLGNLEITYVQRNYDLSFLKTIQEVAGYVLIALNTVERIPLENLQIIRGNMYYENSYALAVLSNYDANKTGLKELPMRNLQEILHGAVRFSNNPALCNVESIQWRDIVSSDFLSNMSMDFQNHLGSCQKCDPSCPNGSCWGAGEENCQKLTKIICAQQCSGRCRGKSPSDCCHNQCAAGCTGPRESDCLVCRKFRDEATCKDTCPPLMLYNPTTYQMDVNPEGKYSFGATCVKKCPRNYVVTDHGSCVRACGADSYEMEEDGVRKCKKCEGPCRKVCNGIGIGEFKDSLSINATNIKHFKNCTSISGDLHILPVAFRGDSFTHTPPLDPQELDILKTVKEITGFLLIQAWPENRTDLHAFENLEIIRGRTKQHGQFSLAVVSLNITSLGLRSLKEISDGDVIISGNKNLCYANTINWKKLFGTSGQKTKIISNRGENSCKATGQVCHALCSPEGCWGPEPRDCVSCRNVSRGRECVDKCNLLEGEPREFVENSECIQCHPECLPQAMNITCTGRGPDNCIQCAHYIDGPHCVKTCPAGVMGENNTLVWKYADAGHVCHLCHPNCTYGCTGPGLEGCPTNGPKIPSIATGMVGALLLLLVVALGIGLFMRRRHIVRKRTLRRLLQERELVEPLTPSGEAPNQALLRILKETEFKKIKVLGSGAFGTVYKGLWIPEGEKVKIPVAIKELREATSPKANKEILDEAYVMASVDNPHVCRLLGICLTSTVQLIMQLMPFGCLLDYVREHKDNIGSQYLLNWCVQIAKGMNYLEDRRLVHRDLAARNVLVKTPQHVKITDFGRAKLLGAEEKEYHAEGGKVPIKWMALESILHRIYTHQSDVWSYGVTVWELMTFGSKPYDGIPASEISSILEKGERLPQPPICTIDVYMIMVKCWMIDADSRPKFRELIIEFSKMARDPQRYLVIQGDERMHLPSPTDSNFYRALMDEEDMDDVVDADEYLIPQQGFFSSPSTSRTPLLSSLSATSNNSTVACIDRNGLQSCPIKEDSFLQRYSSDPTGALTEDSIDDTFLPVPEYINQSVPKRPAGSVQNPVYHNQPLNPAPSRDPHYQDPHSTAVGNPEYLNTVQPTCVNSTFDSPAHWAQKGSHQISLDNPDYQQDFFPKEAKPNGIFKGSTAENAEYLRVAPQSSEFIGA
Experiment: Cell Degradation 1: EGFR degradation in H1975 cells, HTRF assay
Assay type: cell-based
Details: 16 h treatment, EGFR degradation by HTRF
Field 'label' (enum: Condition met / Condition not met). Set to Condition met when DC50 is strictly under 6 nM; else Condition not met.

I'd appreciate it if you could check whether COc1cc(N2CCC(N3CCN(C(=O)[C@@H]4CCN(c5ccc6c(c5)C(=O)N(C5CCC(=O)NC5=O)C6=O)C4)CC3)CC2)ccc1Nc1ncc(Cl)c(Nc2cccc3c2N(S(C)(=O)=O)CC3)n1 (stereo partly shown) [Example 88] has DC50 smaller than 6 nM.
Condition met

Lab log: compare recorded DC50 with 6 nM; is it strictly lower for CS(=O)(=O)N1CCc2cccc(Nc3nc(Nc4ccc(N5CCC(N6CCN(CC7CN(c8ccc9c(c8)C(=O)N(C8CCC(=O)NC8=O)C9=O)C7)CC6)CC5)c(F)c4)ncc3Cl)c21 (stereo not shown) [Example 76] ?
Condition met

Would you kindly verify if DC50 of CS(=O)(=O)N1CCc2cccc(Nc3nc(Nc4ccc(N5CCC(N6CCN(CCOc7cccc(C8CCC(=O)NC8=O)c7)CC6)CC5)c(F)c4)nc4[nH]ccc34)c21 (stereo not shown) [Example 5] is strictly less than 6 nM?
Condition not met

Please check: DC50 for CS(=O)(=O)N1CCc2cccc(Nc3nc(Nc4ccc(N5CCC(N6CCN(C(=O)CCN7CCN(c8ccc9c(c8)C(=O)N(C8CCC(=O)NC8=O)C9=O)CC7)CC6)CC5)c(F)c4)nc4[nH]ccc34)c21 (stereo not shown) [Example 15] , strictly under 6 nM or not?
Condition not met

Lab note: DC50 threshold 6 nM. Does this compound come in strictly under it? COc1cc(N2CCC(N3CCN(C(=O)C4CCN(CC5CCN(c6ccc7c(c6)C(=O)N(C6CCC(=O)NC6=O)C7=O)CC5)CC4)CC3)CC2)c(C)cc1Nc1ncc(Br)c(Nc2cccc3c2N(S(C)(=O)=O)CC3)n1 (stereo not shown) [Example 43]
Condition not met

In plain terms, does COc1cc(N2CCC(N3CCN(CCC4CCN(c5ccc(C6CCC(=O)NC6=O)c(F)c5)CC4)CC3)CC2)ccc1Nc1ncc(Cl)c(Nc2cccc3c2N(S(C)(=O)=O)CC3)n1 (stereo not shown) [Example 36] come in under 6 nM for DC50?
Condition not met

Report whether reported DC50 is lower than 6 nM (strictly) for CS(=O)(=O)N1CCc2cccc(Nc3nc(Nc4ccc(N5CCC(N6CCN(CCC7CCN(c8ccc(C9CCC(=O)NC9=O)c(F)c8)CC7)CC6)CC5)c5c4OCC5)ncc3Cl)c21 (stereo not shown) [Example 51]
Condition not met

# strict comparison: is reported DC50 < 6 nM? input = COc1cc(Nc2nc(Nc3cccc4c3N(S(C)(=O)=O)CC4)c3cc[nH]c3n2)ccc1N1CCC(N2CCN(C(=O)[C@H]3CCN(c4ccc5c(c4)C(=O)N(C4CCC(=O)NC4=O)C5=O)C3)CC2)CC1 (stereo partly shown) [Example 74]
Condition met

Bench note: check whether COc1cc(N2CCC(N3CCN(CC4CCN(c5ccc(C6CCC(=O)NC6=O)cc5)CC4)CC3)CC2)c(C)cc1Nc1ncc(Br)c(Nc2cccc3c2N(S(C)(=O)=O)CC3)n1 (stereo not shown) [Example 40] shows DC50 below 6 nM
Condition not met

Attribution: patent US12643903B2
